runDescription: Inhibition of rat brain particulate cAMP phosphodiesterase (Inactive)

smi	I 50
CCOC(=O)COc1cc(OCC(=O)OCC)c2c(=O)c(OCC(=O)OCC)c(-c3ccc(OCC(=O)OCC)c(OCC(=O)OCC)c3)oc2c1	Not Active
CCOc1cc(O)c2c(=O)c(OCC)c(-c3ccc(OCC)c(OCC)c3)oc2c1	Not Active
CCOC(=O)COc1c(-c2ccc(OCC)c(OCC)c2)oc2cc(OCC)cc(OCC)c2c1=O	Not Active
CCCC(=O)Oc1cc(OC(=O)CCC)c2c(=O)c(OC(=O)CCC)c(-c3ccc(OC(=O)CCC)c(OC(=O)CCC)c3)oc2c1	Not Active

---

runDescription: Inhibition of rat brain particulate cAMP phosphodiesterase
experimentalSetup: read-out: I50
endpoint: pIC50
Formally, pIC50 is defined as -log10 of the concentration c, with c in mol/L.

**Query** Which value of pIC50 has been reported for CCCOc1ccccc1-c1nc2[nH]nnc2c(=O)[nH]1 in the records?
**Result** 4.13

**Query** Which value of pIC50 has been reported for CCOc1cc(OCCN(CC)CC)c2c(=O)c(OCC)c(-c3ccc(OCC)c(OCC)c3)oc2c1 in the records?
**Result** 5.00

**Query** Which value of pIC50 has been reported for CCOc1cc(OCC)c2c(=O)c(OCCN(CC)CC)c(-c3ccc(OCC)c(OCC)c3)oc2c1 in the records?
**Result** 4.70

---

Hi there, I'd appreciate the recorded pIC50 for every entry that follows.
testedOn: cGMP-dependent 3',5'-cyclic phosphodiesterase (Rattus norvegicus, UniProt Q01062)
Sequence (Q01062 whole entry): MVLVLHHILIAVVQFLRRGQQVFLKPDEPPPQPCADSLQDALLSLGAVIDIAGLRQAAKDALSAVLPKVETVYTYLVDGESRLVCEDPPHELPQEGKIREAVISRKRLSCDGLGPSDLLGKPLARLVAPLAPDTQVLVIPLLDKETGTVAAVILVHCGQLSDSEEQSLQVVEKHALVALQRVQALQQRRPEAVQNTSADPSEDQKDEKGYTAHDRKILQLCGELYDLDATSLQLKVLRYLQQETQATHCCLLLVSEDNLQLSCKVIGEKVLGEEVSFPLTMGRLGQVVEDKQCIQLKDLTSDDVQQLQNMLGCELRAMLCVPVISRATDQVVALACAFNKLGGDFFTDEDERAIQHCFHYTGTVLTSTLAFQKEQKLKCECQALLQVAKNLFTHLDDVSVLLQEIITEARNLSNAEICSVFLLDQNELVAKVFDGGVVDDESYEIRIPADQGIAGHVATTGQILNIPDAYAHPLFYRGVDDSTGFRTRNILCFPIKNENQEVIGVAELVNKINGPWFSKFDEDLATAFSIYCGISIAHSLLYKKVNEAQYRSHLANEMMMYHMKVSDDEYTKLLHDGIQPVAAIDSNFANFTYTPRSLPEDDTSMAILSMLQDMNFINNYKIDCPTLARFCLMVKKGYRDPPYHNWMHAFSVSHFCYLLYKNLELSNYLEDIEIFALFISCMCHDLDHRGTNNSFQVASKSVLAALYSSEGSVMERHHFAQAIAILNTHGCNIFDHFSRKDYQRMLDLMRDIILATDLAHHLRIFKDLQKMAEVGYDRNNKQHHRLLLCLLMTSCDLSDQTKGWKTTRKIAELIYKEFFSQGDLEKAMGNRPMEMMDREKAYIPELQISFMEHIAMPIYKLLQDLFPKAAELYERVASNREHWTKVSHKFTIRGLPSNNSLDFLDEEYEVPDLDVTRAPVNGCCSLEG
runDescription: Inhibition of rat brain particulate cGMP phosphodiesterase
experimentalSetup: read-out: I50
Formally, pIC50 is defined as -log10 of the concentration c, with c in mol/L.

**Query** Which value of pIC50 has been reported for CCOc1cc(OCC)c2c(=O)c(OCCN(CC)CC)c(-c3ccc(OCC)c(OCC)c3)oc2c1 in the records?
**Result** 3.90

**Query** Which value of pIC50 has been reported for CCCOc1ccccc1-c1nc2nn[nH]c2c(=O)[nH]1 in the records?
**Result** 4.20

**Query** Which value of pIC50 has been reported for CCOc1cc(OCCN(CC)CC)c2c(=O)c(OCC)c(-c3ccc(OCC)c(OCC)c3)oc2c1 in the records?
**Result** 4.10

---

Hi there, I'd appreciate the recorded pIC50 for every entry that follows.
runDescription: Inhibition of rat brain particulate cAMP phosphodiesterase
experimentalSetup: read-out: I 50
Formally, pIC50 is defined as -log10 of the concentration c, with c in mol/L.

**Query** Which value of pIC50 has been reported for COc1cc(OC)c2c(=O)c(OC)c(-c3ccc(OC)c(OC)c3)oc2c1 in the records?
**Result** 4.99

**Query** Which value of pIC50 has been reported for CCCCOc1cc(CC2CNC(=O)N2)ccc1OC (stereo unspecified) [RO-201724] in the records?
**Result** 4.13

**Query** Which value of pIC50 has been reported for CCOc1cc(OCC(=O)O)c2c(=O)c(OCC)c(-c3ccc(OCC)c(OCC)c3)oc2c1 in the records?
**Result** 4.80

**Query** Which value of pIC50 has been reported for O=c1c(OCCO)c(-c2ccc(OCCO)c(OCCO)c2)oc2cc(OCCO)cc(OCCO)c12 in the records?
**Result** 4.16

**Query** Which value of pIC50 has been reported for O=c1c(OCCBr)c(-c2ccc(OCCBr)c(OCCBr)c2)oc2cc(OCCBr)cc(OCCBr)c12 in the records?
**Result** 4.74

**Query** Which value of pIC50 has been reported for CCOc1cc(OCC)c2c(=O)c(OCC(=O)O)c(-c3ccc(OCC)c(OCC)c3)oc2c1 in the records?
**Result** 4.66

**Query** Which value of pIC50 has been reported for O=c1c(O)c(-c2ccc(O)c(O)c2)oc2cc(O)cc(O)c12 [QUERCETIN] in the records?
**Result** 4.70

**Query** Which value of pIC50 has been reported for CCOC(=O)COc1cc(OCC)cc2oc(-c3ccc(OCC)c(OCC)c3)c(OCC)c(=O)c12 in the records?
**Result** 5.08

**Query** Which value of pIC50 has been reported for CC(=O)Oc1cc(OC(C)=O)c2c(=O)c(OC(C)=O)c(-c3ccc(OC(C)=O)c(OC(C)=O)c3)oc2c1 in the records?
**Result** 3.90

**Query** Which value of pIC50 has been reported for CCOc1cc(OCC)c2c(=O)c(OCC)c(-c3ccc(OCC)c(OCC)c3)oc2c1 in the records?
**Result** 5.11

**Query** Which value of pIC50 has been reported for CCOc1cc(OCCBr)c2c(=O)c(OCC)c(-c3ccc(OCC)c(OCC)c3)oc2c1 in the records?
**Result** 4.77

---

Organism: Rattus norvegicus
runDescription: Relative inhibition of cAMP and cGMP hydrolysis by cytosolic phosphodiesterase
endpoint: Ratio
Enter a number only.

**Query** Which value of Ratio has been reported for CCCOc1ccccc1-c1nc2[nH]nnc2c(=O)[nH]1 in the records?
**Result** 0.71

**Query** Which value of Ratio has been reported for O=c1c(O)c(-c2ccc(O)c(O)c2)oc2cc(O)cc(O)c12 in the records?
**Result** 0.32

**Query** Which value of Ratio has been reported for CCOc1cc(OCCN(CC)CC)c2c(=O)c(OCC)c(-c3ccc(OCC)c(OCC)c3)oc2c1 in the records?
**Result** 0.6

**Query** Which value of Ratio has been reported for CCOc1cc(OCC)c2c(=O)c(OCCN(CC)CC)c(-c3ccc(OCC)c(OCC)c3)oc2c1 in the records?
**Result** 0.79

**Query** Which value of Ratio has been reported for CCCCOc1cc(CC2CNC(=O)N2)ccc1OC (stereo not drawn) in the records?
**Result** 0.16

---

Hi there, I'd appreciate the recorded Ratio for every entry that follows.
Organism: Rattus norvegicus
runDescription: Relative inhibition of cAMP and cGMP hydrolysis by cytosolic phosphodiesterase
Enter a number only.

**Query** Which value of Ratio has been reported for CCOc1cc(OCC(=O)O)c2c(=O)c(OCC)c(-c3ccc(OCC)c(OCC)c3)oc2c1 in the records?
**Result** 0.32

**Query** Which value of Ratio has been reported for O=c1c(OCCBr)c(-c2ccc(OCCBr)c(OCCBr)c2)oc2cc(OCCBr)cc(OCCBr)c12 in the records?
**Result** 0.05

**Query** Which value of Ratio has been reported for O=c1c(OCCO)c(-c2ccc(OCCO)c(OCCO)c2)oc2cc(OCCO)cc(OCCO)c12 in the records?
**Result** 0.17

---

testedOn: cGMP-dependent 3',5'-cyclic phosphodiesterase (Rattus norvegicus, UniProt Q01062)
Sequence (Q01062 whole entry): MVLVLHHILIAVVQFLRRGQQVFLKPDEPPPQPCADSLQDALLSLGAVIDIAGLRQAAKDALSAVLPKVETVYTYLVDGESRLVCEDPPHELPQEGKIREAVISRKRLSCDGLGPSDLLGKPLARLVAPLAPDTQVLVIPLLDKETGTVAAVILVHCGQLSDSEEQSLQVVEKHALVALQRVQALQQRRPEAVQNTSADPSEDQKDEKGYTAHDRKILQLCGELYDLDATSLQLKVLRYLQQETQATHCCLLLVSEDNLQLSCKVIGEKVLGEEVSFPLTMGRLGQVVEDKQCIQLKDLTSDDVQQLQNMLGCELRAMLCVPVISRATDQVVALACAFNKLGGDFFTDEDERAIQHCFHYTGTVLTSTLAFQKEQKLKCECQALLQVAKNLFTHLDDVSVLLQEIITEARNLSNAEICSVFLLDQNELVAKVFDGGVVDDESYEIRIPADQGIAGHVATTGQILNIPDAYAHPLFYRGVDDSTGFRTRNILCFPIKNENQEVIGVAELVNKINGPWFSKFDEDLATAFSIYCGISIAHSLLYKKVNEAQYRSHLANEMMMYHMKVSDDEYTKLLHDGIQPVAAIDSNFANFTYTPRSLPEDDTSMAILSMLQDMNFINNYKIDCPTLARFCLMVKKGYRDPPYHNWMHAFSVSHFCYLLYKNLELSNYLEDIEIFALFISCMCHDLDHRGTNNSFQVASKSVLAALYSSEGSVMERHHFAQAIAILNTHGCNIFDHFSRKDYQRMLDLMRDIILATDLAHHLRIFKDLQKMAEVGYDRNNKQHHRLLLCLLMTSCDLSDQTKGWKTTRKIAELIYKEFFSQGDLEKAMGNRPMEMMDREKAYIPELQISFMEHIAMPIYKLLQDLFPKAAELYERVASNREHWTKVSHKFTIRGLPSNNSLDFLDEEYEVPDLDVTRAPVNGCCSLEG
runDescription: Inhibition of rat brain particulate cGMP phosphodiesterase
experimentalSetup: read-out: I 50
pIC50: −log10 of the molar value.
Binary call on pIC50: condition met from 3 upward, condition not met beneath that.

**Query** Does the reported pIC50 for O=c1c(OCCO)c(-c2ccc(OCCO)c(OCCO)c2)oc2cc(OCCO)cc(OCCO)c12 fall at or above the 3 mark?
**Result** condition not met

**Query** Does the reported pIC50 for CCCCOc1cc(CC2CNC(=O)N2)ccc1OC (stereo unspecified) fall at or above the 3 mark?
**Result** condition not met

**Query** Does the reported pIC50 for CCOC(=O)COc1cc(OCC)cc2oc(-c3ccc(OCC)c(OCC)c3)c(OCC)c(=O)c12 fall at or above the 3 mark?
**Result** condition met

**Query** Does the reported pIC50 for CCOc1cc(OCC(=O)O)c2c(=O)c(OCC)c(-c3ccc(OCC)c(OCC)c3)oc2c1 fall at or above the 3 mark?
**Result** condition met

**Query** Does the reported pIC50 for CC(=O)Oc1cc(OC(C)=O)c2c(=O)c(OC(C)=O)c(-c3ccc(OC(C)=O)c(OC(C)=O)c3)oc2c1 fall at or above the 3 mark?
**Result** condition met

**Query** Does the reported pIC50 for O=c1c(OCCBr)c(-c2ccc(OCCBr)c(OCCBr)c2)oc2cc(OCCBr)cc(OCCBr)c12 fall at or above the 3 mark?
**Result** condition met

**Query** Does the reported pIC50 for CCOc1cc(OCCBr)c2c(=O)c(OCC)c(-c3ccc(OCC)c(OCC)c3)oc2c1 fall at or above the 3 mark?
**Result** condition met

**Query** Does the reported pIC50 for CCOc1cc(OCC)c2c(=O)c(OCC)c(-c3ccc(OCC)c(OCC)c3)oc2c1 fall at or above the 3 mark?
**Result** condition met

**Query** Does the reported pIC50 for CCOc1cc(OCC)c2c(=O)c(OCC(=O)O)c(-c3ccc(OCC)c(OCC)c3)oc2c1 fall at or above the 3 mark?
**Result** condition met

**Query** Does the reported pIC50 for COc1cc(OC)c2c(=O)c(OC)c(-c3ccc(OC)c(OC)c3)oc2c1 fall at or above the 3 mark?
**Result** condition met

**Query** Does the reported pIC50 for O=c1c(O)c(-c2ccc(O)c(O)c2)oc2cc(O)cc(O)c12 fall at or above the 3 mark?
**Result** condition met
